test system: HS 578T breast; test: NCI tumour cell line growth inhibition, 48 h
The entries below come with measured TGI values attached.

| compound | value-qualifier | TGI [µM] |
| --- | --- | --- |
| COC12C=C/C(=C(/C(=O)OCc3ccncc3)C(=O)CCCCCCCCC3(OC)C=C/C(=C(/C(=O)OCc4ccncc4)C(=O)CCCCCCCC1)O3)O2 | = | 15.4 |
| Cc1[nH]c2ccccc2c1-c1cc(-c2cc(-c3c(C)[nH]c4ccccc34)on2)no1 | = | 90.6 |
| CSc1ncnc2c1cnn2CCCCO | > | 100 |
| O=C(NS(=O)(=O)OCC(Cl)(Cl)Cl)SCCC(F)(F)C(F)(F)C(F)(F)C(F)(F)C(F)(F)C(F)(F)F | = | 42.1 |
| Cc1c(CNc2ccc(C(=O)NC(CC(=O)O)C(=O)O)cc2)ccc2nc(N)nc(N)c12 (stereo not given) | > | 1000 |

All values here come from PubChem BioAssay (NCI).
